For each of the binders below, state its pKd.
Target: T1, Hera/Hera_K51Q heterodimer (Thermus thermophilus, UniProt O07897;O07897 1-510;1-510, K51Q)
T1 sequence 1: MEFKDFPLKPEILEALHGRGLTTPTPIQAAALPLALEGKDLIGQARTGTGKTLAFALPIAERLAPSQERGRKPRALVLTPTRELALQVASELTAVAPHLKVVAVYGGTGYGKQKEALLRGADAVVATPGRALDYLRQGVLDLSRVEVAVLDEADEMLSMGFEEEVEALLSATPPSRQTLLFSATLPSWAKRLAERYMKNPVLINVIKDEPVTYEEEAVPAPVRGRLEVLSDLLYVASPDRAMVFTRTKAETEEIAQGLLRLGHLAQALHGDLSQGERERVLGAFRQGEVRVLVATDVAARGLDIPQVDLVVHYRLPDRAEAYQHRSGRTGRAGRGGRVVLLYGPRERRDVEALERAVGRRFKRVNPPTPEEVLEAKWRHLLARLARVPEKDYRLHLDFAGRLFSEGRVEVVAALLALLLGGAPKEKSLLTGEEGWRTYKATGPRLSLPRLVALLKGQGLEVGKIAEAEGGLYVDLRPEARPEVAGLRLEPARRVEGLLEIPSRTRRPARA
T1 sequence 2: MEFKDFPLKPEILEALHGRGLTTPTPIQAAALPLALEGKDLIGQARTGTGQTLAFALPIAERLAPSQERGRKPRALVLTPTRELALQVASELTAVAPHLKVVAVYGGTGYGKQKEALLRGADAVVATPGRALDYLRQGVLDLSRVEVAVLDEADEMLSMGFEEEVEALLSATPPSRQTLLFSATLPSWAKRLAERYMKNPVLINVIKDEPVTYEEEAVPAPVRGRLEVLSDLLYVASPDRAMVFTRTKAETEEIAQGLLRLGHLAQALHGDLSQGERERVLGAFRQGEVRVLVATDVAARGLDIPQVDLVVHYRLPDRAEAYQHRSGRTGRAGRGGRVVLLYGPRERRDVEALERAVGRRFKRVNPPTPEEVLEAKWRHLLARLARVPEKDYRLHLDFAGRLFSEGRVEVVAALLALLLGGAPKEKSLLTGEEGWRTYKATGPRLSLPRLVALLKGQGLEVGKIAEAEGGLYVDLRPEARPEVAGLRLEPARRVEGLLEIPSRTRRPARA
Test: fluorescence anisotropy
The value called pKd is obtained by taking minus log10 of the concentration in mol/L.

What does the data say about its pKd? Entry: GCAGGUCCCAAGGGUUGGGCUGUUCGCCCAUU (structured_RNA) [fl-32mer]
7.10

What does the data say about its pKd? Entry: fl-32/9mer (structured_RNA) RNA 1: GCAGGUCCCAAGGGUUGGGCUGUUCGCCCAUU RNA 2: UUGGGACCU
5.60
